Assay: qHTS assay for small molecule agonists of the antioxidant response element (ARE) signaling pathway measured by Nrf2-dependant transcriptional activity - cell viability counter screen (AID 720653); also: % is scaled to controls: 0 for no effect and ±100 for the full control effect
Details: ARE-bla HepG2 viability, CellTiter-Glo ATP luminescence, 16 h; stronger effect = lower value
Results filed as inconclusive are left out.

COMPOUND | UNIT ABBREV | max response
CNP(=O)(OC)Oc1ccc(C(C)(C)C)cc1Cl (stereo not drawn) | % | 8.45
CCOP(=S)(OCC)SCn1nnc2ccccc2c1=O | % | -19.9
ClC1=C(Cl)C2(Cl)C3C(Cl)C(Cl)CC3C1(Cl)C2(Cl)Cl (stereo not drawn) | % | -13.1
Cc1cccc2sc3nncn3c12 | % | 0.787
CNC(=O)O/N=C/C(C)(C)S(C)(=O)=O | % | 1.38
CCOP(=S)(OCC)Oc1nc(Cl)n(C(C)C)n1 | % | -6.76
CCN(CC)C(=O)C(C)Oc1cccc2ccccc12 (stereo not drawn) | % | -4.78
COc1ccc(/C(=C/C(=O)N2CCOCC2)c2ccc(Cl)cc2)cc1OC | % | -2.69
CCC(C)(c1ccc(O)cc1)c1ccc(O)cc1 | % | -14.2
CCCCC(CC)CO[N+](=O)[O-] (stereo not drawn) | % | -12.3
CCOc1nc(C(Cl)(Cl)Cl)ns1 | % | -1.82
CNC(=O)Oc1cc(C)cc(C(C)C)c1 | % | 3.5
CNC(=O)Oc1cc(C)c(SC)c(C)c1 | % | -13.2
